Exercise: for every item that follows, state its recorded activity change, negative = inhibition.
Assay: control 3'UTR Renilla luciferase suppression, dose response, counter-screen for Shn3 inhibitor project, cell-based, Clone20-Shn3RL, cherry-picked (AID 624133);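 also: 0% = neutral control wells and -100% = positive control wells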
Settings: Clone20-Shn3RL cells, Renilla luciferase luminescence, 24 h; at 35 µM (top of the series) unless noted
In all, about 1,600 compounds went through this assay and about 1,300 (81%) were called active. So high a share suggests a set chosen from earlier hits. Not all results are given here. Entries with a potency or affinity are not part of this list.
Give just the number in %; leave the unit off.

Name the reported activity change, negative = inhibition value associated with the compound COc1ccc(NS(=O)(=O)c2cccc(NC(=O)c3ccc(S(=O)(=O)N4CCCCCC4)cc3)c2)cc1
11.9

Name the reported activity change, negative = inhibition value associated with the compound COC(=O)c1ccccc1NC(=S)N(Cc1ccc2c(c1)OCO2)Cc1cc2cc(OC)ccc2[nH]c1=O
200

Name the reported activity change, negative = inhibition value associated with the compound Cc1ccc(NC(=O)C2CCC(C(C)(C)C)CC2)cc1S(=O)(=O)N1CCOCC1 (stereo not given)
-100

Name the reported activity change, negative = inhibition value associated with the compound Cc1cc(C(=O)Cn2cnc3cc(F)ccc3c2=O)c(C)n1C1CC1
-16.7

Name the reported activity change, negative = inhibition value associated with the compound Cc1ccc(C(=O)Nc2ccc3c(c2)C(=O)N(CC2CCCO2)C3=O)cc1 (stereo not given)
80

Name the reported activity change, negative = inhibition value associated with the compound COc1ccc(NS(=O)(=O)c2ccc(N3CCOCC3)c(N)c2)cc1
-21.1

Name the reported activity change, negative = inhibition value associated with the compound COC(=O)c1cn(NC(=O)c2cc([N+](=O)[O-])ccc2F)c(=O)c2ccccc12
354

Name the reported activity change, negative = inhibition value associated with the compound O=c1c2ccccc2c(C=Nc2ccccc2O)c(O)n1-c1nccs1
-2.5

Name the reported activity change, negative = inhibition value associated with the compound COc1ccc(-c2cc3nc(C)n(N)c(=O)c3s2)cc1
13

Name the reported activity change, negative = inhibition value associated with the compound O=C(O)C1(Nc2ccccc2Cl)CCCC1
-15

---

Experiment: control 3'UTR Renilla luciferase suppression, dose response, counter-screen for Shn3 inhibitor project, cell-based, Clone20-Shn3RL, cherry-picked (AID 624133);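 also: 0% = neutral control wells and -100% = positive control wells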
Conditions: Clone20-Shn3RL cells, Renilla luciferase luminescence, 24 h; at 35 µM (top of the series) unless noted
About 1,300 (81%) of roughly 1,600 compounds were called active. So high a share suggests a set chosen from earlier hits. Only a sample is shown. Potency and affinity values are given separately.
So basically: activity change, negative = inhibition at 20% or higher? That is 1. Lower than 20%? That is 0.

Would you say NS(=O)(=O)c1ccc(CNC(=S)NC(=O)c2ccco2)cc1 shows activity change, negative = inhibition at minimum 20%?
1

Would you say O=C(Nc1ccccc1)Nc1cc(OCC(F)(F)F)cc(OCC(F)(F)F)c1 shows activity change, negative = inhibition at minimum 20%?
0

Would you say Cc1cc(S(=O)(=O)NCc2ccncc2)c(C)cc1Br shows activity change, negative = inhibition at minimum 20%?
1

Would you say C[C@@H]1CN([C@@H](C)CO)C(=O)c2cc(NC(=O)Nc3ccc(F)cc3)ccc2O[C@@H]1CN(C)Cc1ccc(Oc2ccccc2)cc1 shows activity change, negative = inhibition at minimum 20%?
0

Would you say Cn1cc(CN(CCO)Cc2cccs2)c(-c2cccc(Cl)c2)n1 shows activity change, negative = inhibition at minimum 20%?
0

---

Experiment: control 3'UTR Renilla luciferase suppression, dose response, counter-screen for Shn3 inhibitor project, cell-based, Clone20-Shn3RL, cherry-picked (AID 624133);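 also: 0% = neutral control wells and -100% = positive control wells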
Conditions: Clone20-Shn3RL cells, Renilla luciferase luminescence, 24 h; at 35 µM (top of the series) unless noted
Out of some 1,600 compounds screened, about 1,300 (81%) were called active. The set was probably picked from earlier hits. These entries were drawn from the full list. Potency and affinity values are given separately.
Quantity Kind: activity change, negative = inhibition (%)
Give just the number in %; leave the unit off.

Name the reported activity change, negative = inhibition value associated with the molecule O=C(CN1C(=O)C2CCCCC2C1=O)NC1CCCc2ccccc21 (stereo not given)
-10

Name the reported activity change, negative = inhibition value associated with the molecule COc1cc(Nc2nc(-c3ccccc3)c3cc(C)ccc3n2)cc(OC)c1OC
16.7

Name the reported activity change, negative = inhibition value associated with the molecule CCN(CC)S(=O)(=O)c1ccc(N2CCOCC2)c(NC(=O)c2nn(C(C)C)c(=O)c3ccccc23)c1
-4.17

Name the reported activity change, negative = inhibition value associated with the molecule CCCc1nc2c(=O)n(C)c(=O)nc-2n(C)n1
71.8

Name the reported activity change, negative = inhibition value associated with the molecule CCC12CN(S(=O)(=O)c3ccc(C)cc3)CC(CC)(CN(S(=O)(=O)c3ccc(C)cc3)C1)C2=O
154

Name the reported activity change, negative = inhibition value associated with the molecule O=C1CCc2cccc(O)c2N1
-23.2

Name the reported activity change, negative = inhibition value associated with the molecule Cc1oc(=O)c(NC(=O)c2ccc(Cl)cc2)cc1C(=O)c1ccccc1
-75

Name the reported activity change, negative = inhibition value associated with the molecule CCN(CC)S(=O)(=O)c1ccc(N(C)Cc2cccc(OC)c2OC)nc1
-40

Name the reported activity change, negative = inhibition value associated with the molecule COc1cc(OC)c(OC)cc1CCC(C)NCCC(c1ccccc1)c1ccccc1 (stereo not given)
-33.3

Name the reported activity change, negative = inhibition value associated with the molecule O=C(Nc1ccc([N+](=O)[O-])cc1)C(=O)Nc1cccc(C(=O)O)c1
43.3

---

Assay: control 3'UTR Renilla luciferase suppression, dose response, counter-screen for Shn3 inhibitor project, cell-based, Clone20-Shn3RL, cherry-picked (AID 624133);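 also: 0% = neutral control wells and -100% = positive control wells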
Conditions: Clone20-Shn3RL cells, Renilla luciferase luminescence, 24 h; at 35 µM (top of the series) unless noted
Hit rate of the full screen: of about 1,600 compounds, about 1,300 (81%) were called active. So high a share suggests a set chosen from earlier hits. Not all results are given here. Results with a measured potency or affinity are listed apart.
Quantity Kind: activity change, negative = inhibition
The reply should read as a number followed by its unit.

Name the reported activity change, negative = inhibition value associated with the compound CCN(CC)C(=O)C1CCCN(c2ccc([N+](=O)[O-])cc2[N+](=O)[O-])C1 (stereo unspecified)
58.3%

Name the reported activity change, negative = inhibition value associated with the compound CCc1c(O)nc(SCC(=O)Nc2ccccc2)n(-c2ccccc2)c1=O
80%

Name the reported activity change, negative = inhibition value associated with the compound COc1ccc(OC)c(NC(=O)COC(=O)c2c3c(nc4ccccc24)CCCC3)c1
40%

Name the reported activity change, negative = inhibition value associated with the compound COc1ccc(N2C(=O)C(CC(=O)Nc3ccccc3)N(Cc3ccc(OC)c(OC)c3)C2=O)cc1 (stereo unspecified)
84.7%

Name the reported activity change, negative = inhibition value associated with the compound CC(=O)N(CCc1ccccc1)c1ccc2c(c1)C1CC2CCN1C(=O)OCc1ccccc1 (stereo unspecified)
-90.9%

Name the reported activity change, negative = inhibition value associated with the compound COC(=O)[C@@]12CCCN1[C@H](c1ccc(-c3ccc(OC)cc3)cc1)[C@@H]1C(=O)N(C)C(=O)[C@@H]12
47.2%

Name the reported activity change, negative = inhibition value associated with the compound Cc1cccc(CSc2cccc3cccnc23)c1
49.1%

Name the reported activity change, negative = inhibition value associated with the compound CCOC(=O)c1c(NC(=O)c2nn(CC)cc2Br)sc(C)c1C
16.7%

Name the reported activity change, negative = inhibition value associated with the compound Cc1nc2scc(C)n2c(=O)c1S(=O)(=O)Nc1ccc(N2CCOCC2)c(Cl)c1
62.5%

Name the reported activity change, negative = inhibition value associated with the compound CN(Cc1ccccc1)C(=O)c1cccc(NC(=O)Cc2ccc([N+](=O)[O-])cc2)c1
230%

Name the reported activity change, negative = inhibition value associated with the compound Cc1ccc(OC(=O)CCC(=O)Oc2ccc(C)cc2C)c(C)c1
70.8%

Name the reported activity change, negative = inhibition value associated with the compound COc1ccc(OC)c(NC(=O)CN(Cc2ccc(F)cc2)C2CCCCC2)c1
-40%

Name the reported activity change, negative = inhibition value associated with the compound CCN(CC)Cc1c(O)ccc2c1O/C(=C\C=C\c1ccccc1)C2=O
60%

Name the reported activity change, negative = inhibition value associated with the compound O=c1cc(-c2ccc(O)cc2)oc2ccc3ccccc3c12
91.7%

Name the reported activity change, negative = inhibition value associated with the compound COc1ccc(CNC(=O)C(c2ccc(C)cc2)N(Cc2cccs2)C(=O)c2ccc3c(c2)OCCO3)cc1 (stereo unspecified)
50%

Name the reported activity change, negative = inhibition value associated with the compound CC1(C)CC(=O)c2c(nc(SCC(=O)Nc3nsc(-c4ccccc4)n3)c(C#N)c2-c2ccccc2)C1
16.7%

Name the reported activity change, negative = inhibition value associated with the compound CCCCN1CC(COCc2ccccc2)Oc2cccc(Oc3ccc(C(C)C)cc3)c2S1(=O)=O (stereo unspecified)
37.5%

Name the reported activity change, negative = inhibition value associated with the compound Cc1cc(C)n(-c2cc(-n3nc(C)cc3C)ncn2)n1
2.38%

Name the reported activity change, negative = inhibition value associated with the compound CN=C1c2cc3cc(OC)ccc3n2CCN1Cc1ccccc1
64.3%

Name the reported activity change, negative = inhibition value associated with the compound COc1ccc(-c2nsc3c(N4CCCCC4C)ncnc23)cc1 (stereo unspecified)
-16.7%

Name the reported activity change, negative = inhibition value associated with the compound O=C(Nc1ccc(Cl)c(Cl)c1)c1cccc(S(=O)(=O)NCc2cccnc2)c1
-10%

The measurements presented in this section are drawn from PubChem BioAssay AID624133.
